- Target or test system: wild-type ALK2 (aa172-499) (Homo sapiens (Human), UniProt Q04771)
- Sequence (Q04771 172-499): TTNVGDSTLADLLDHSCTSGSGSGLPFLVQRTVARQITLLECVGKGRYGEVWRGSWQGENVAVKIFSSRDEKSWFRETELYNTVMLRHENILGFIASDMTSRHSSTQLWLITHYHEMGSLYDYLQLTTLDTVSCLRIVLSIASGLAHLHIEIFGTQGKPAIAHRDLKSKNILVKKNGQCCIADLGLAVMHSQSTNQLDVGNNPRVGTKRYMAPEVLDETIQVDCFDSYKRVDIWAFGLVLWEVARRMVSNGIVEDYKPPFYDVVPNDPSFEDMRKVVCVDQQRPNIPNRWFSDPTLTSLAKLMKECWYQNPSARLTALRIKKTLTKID
- Protocol notes: ADPGlo biochemical autophosphorylation assay, ALK2
- Condition info: 15 μm ATP, 60 min at 32° C.
pIC50: −log10 of the molar value.
Outcome measure: pIC50

Compound structure: CC#CCN1C[C@H]2C[C@@]2(c2ccc(-c3cnc(N)c(C(=O)N[C@H]4CC[C@H](O)CC4)c3)cc2)C1
pIC50: 7.96
--
Compound structure: Nc1ncc(-c2ccc([C@]34C[C@H]3CN(C(CF)CF)C4)cc2)cc1C(=O)N[C@H]1CC[C@H](O)CC1
pIC50: 7.82

P = Nc1ncc(-c2ccc(OCCCN3CCCCC3)cc2)cc1C(=O)NC1CCCCC1
Q = Nc1ncc(-c2ccc([C@]34C[C@H]3CN(C3CCOCC3)C4)cc2)cc1C(=O)NC12CC(CO)(C1)C2
IN: Task for the reader: decide whether P or Q has the larger pIC50. Lab log: write the label of the selected item as the result.
OUT: Q
(Q: 7.96, P: 7.51)

----------
- Protocol notes: Solubility (at 25° C., 24 h equilibration)
- Type: physicochemical
- Condition info: acetate buffer, 25 °C, pH 4.7, aqueous buffer, thermodynamic from solid, pH 4.7 acetate buffer/4.8, 24 h, target concentration 2 mg/mL
Outcome measure: solubility at 24 h

Measured solubility at 24 h of Nc1ncc(-c2ccc([C@@]34C[C@@H]3CN(C3CCOCC3)C4)cc2)cc1C(=O)NC12CCC(O)(CC1)CC2 [Free form Modification HA] : > 2000 µg/mL

----------
- Test system: BMP response element (BRE) luciferase reporter in HuH7 cells, BMP6 stimulated
- Protocol notes: BMP signaling reporter gene assay
- Type: cell-based
- Condition info: Homo sapiens, Huh-7; HuH7 BRE-luciferase, BMP6 100 ng/ml, 5 hours; read-out: MSD BMP RGA IC50
pIC50: −log10 of the molar value.
Outcome measure: pIC50

Some compounds with known pIC50 results, for comparison:
Compound structure: Nc1ncc(-c2ccc([C@@]34C[C@@H]3CN(C3CCN(CC(F)(F)F)CC3)C4)cc2)cc1C(=O)N[C@H]1CC[C@H](O)CC1
pIC50: 7.11
//
Compound structure: CC(C)N1C[C@H]2C[C@@]2(c2ccc(-c3cnc(N)c(C(=O)NC45CC(CO)(C4)C5)c3)cc2)C1
pIC50: 7.37
//
Compound structure: Nc1ncc(-c2ccc([C@]34C[C@H]3CN(C3CCOCC3)C4)cc2)cc1C(=O)NC12CC(CO)(C1)C2
pIC50: 7.77

A = CN1CCN(CCNC(=O)c2ccc(-c3cnc(N)c(C(=O)NC4CCCCC4)c3)cc2)CC1
B = CN1CCN(C(=O)c2ccc(-c3cnc(N)c(C(=O)N[C@H]4CC[C@@H](O)CC4)c3)cc2)CC1
IN: Task for the reader: decide whether A or B has the larger pIC50. Lab log: write the label of the selected item as the result.
OUT: A

I = CC(C)N1C[C@@H]2C[C@]2(c2ccc(-c3cnc(N)c(C(=O)N[C@H]4CC[C@](C)(O)CC4)c3)cc2)C1
II = Nc1ncc(-c2ccc([C@]34C[C@H]3CN(C(CF)CF)C4)cc2)cc1C(=O)N[C@H]1CC[C@H](O)CC1
IN: Task for the reader: decide whether I or II has the larger pIC50. Lab log: write the label of the selected item as the result.
OUT: I
(I: 7.03, II: 6.04)

----------
- Target or test system: wild-type ALK2 (aa172-499) (Homo sapiens (Human))
- Protocol notes: Caliper biochemical peptide phosphorylation assay, ALK2
- Condition info: 15 μm ATP, 60 min at 30° C.; read-out: ALK2 EPK (IC50)
pIC50: −log10 of the molar value.
Outcome measure: pIC50

I = Nc1ncc(-c2ccc([C@]34C[C@H]3CN(CCN3CCOCC3)C4)cc2)cc1C(=O)NC12CCC(O)(CC1)CC2
II = CN1CCN(C(=O)c2ccc(-c3cnc(N)c(C(=O)N[C@H]4CC[C@@H](O)CC4)c3)cc2)CC1
III = Cc1cc(CN2CCC[C@H]2C)ccc1-c1cnc(N)c(C(=O)N[C@H]2CC[C@](C)(O)CC2)c1
IV = Nc1ncc(-c2ccc([C@@]34C[C@@H]3CN(C(CF)CF)C4)cc2)cc1C(=O)N[C@H]1CC[C@H](O)CC1
V = C[C@H](c1ccc(-c2cnc(N)c(C(=O)N[C@]3(C)CC[C@@H](O)CC3)c2)cc1)N1CC2(COC2)C1
IN: Kindly provide a descending ordering of the above compounds based on their pIC50. List each label, following the requested order.
OUT: IV, I, II, V, III
(IV: 7.82, I: 7.54, II: 7.06, V: 6.69, III: 6.20)

a = Nc1ncc(-c2ccc([C@@]34C[C@@H]3CN(C3CCS(=O)(=O)CC3)C4)cc2)cc1C(=O)N[C@H]1CC[C@H](O)CC1
b = CC(C)(O)C12CC(NC(=O)c3cc(-c4ccc([C@@]56C[C@@H]5CN(C5CCOCC5)C6)cc4)cnc3N)(C1)C2
c = CC(C)N1C[C@@H]2C[C@]2(c2ccc(-c3cnc(N)c(C(=O)N[C@H]4CC[C@@H](O)CC4)c3)cc2)C1
d = CC(C)N1C[C@@H]2C[C@]2(c2ccc(-c3cnc(N)c(C(=O)NC45CC(CO)(C4)C5)c3)cc2)C1
IN: Sort these compounds on pIC50 so the largest reading comes first. List each label, following the requested order.
OUT: d, a, c, b

P = Nc1ncc(-c2ccc([C@]34C[C@H]3CN(CC3COC3)C4)cc2)cc1C(=O)N[C@H]1CC[C@H](O)CC1
Q = Nc1ncc(-c2ccc([C@@]34C[C@@H]3CN(C3COC3)C4)cc2)cc1C(=O)NC12CCC(O)(CC1)CC2
IN: Which record shows the lower pIC50: the first, P , or the second, Q ? Lab log: write the label of the selected item as the result.
OUT: Q

a = CN1CCN(C(=O)c2ccc(-c3cnc(N)c(C(=O)NC4CCCCC4)c3)cc2)CC1
b = CN1CCN(CCNC(=O)c2ccc(-c3cnc(N)c(C(=O)NC4CCCCC4)c3)cc2)CC1
c = Nc1ncc(-c2ccc([C@]34C[C@H]3CN(CCC(F)(F)F)C4)cc2)cc1C(=O)N[C@H]1CC[C@H](O)CC1
IN: Ascending by pIC50, please. List each label, following the requested order.
OUT: b, a, c

I = CC#CCN1C[C@@H]2C[C@]2(c2ccc(-c3cnc(N)c(C(=O)N[C@H]4CC[C@H](O)CC4)c3)cc2)C1
II = Nc1ncc(-c2ccc([C@@]34C[C@@H]3CN(CCN3CCOCC3)C4)cc2)cc1C(=O)N[C@H]1CC[C@H](O)CC1
IN: Which record shows the lower pIC50: the first, I , or the second, II ? Lab log: write the label of the selected item as the result.
OUT: I

----------
The following are reported IC50 results, target or system ALK1 (aa166-493) (Homo sapiens (Human), UniProt P37023).
Outcome measure: IC50 (µM)

Some compounds with known IC50 results, for comparison:
Compound: Nc1ncc(-c2ccc([C@]34C[C@H]3CN(CCC(F)(F)F)C4)cc2)cc1C(=O)N[C@H]1CC[C@H](O)CC1 [Example 17]
Outcome measure: IC50
Test value: 0.11
--
Compound: Nc1ncc(-c2ccc(N3CCCCC3)cc2)cc1C(=O)NC1CCCCC1 [Example 61]
Outcome measure: IC50
Test value: 0.94
--
Compound: Nc1ncc(-c2ccc([C@@]34C[C@@H]3CN(C3CCOCC3)C4)cc2)cc1C(=O)N[C@@H]1CC[C@@H](O)[C@@H](F)C1 [Example 21]
Outcome measure: IC50
Test value: 0.055

A = C[C@H](c1ccc(-c2cnc(N)c(C(=O)NC34CC5CC(CC(O)(C5)C3)C4)c2)cc1)N1CC2(COC2)C1 [Example 68]
B = Nc1ncc(-c2ccc([C@]34C[C@H]3CN(CCN3CCOCC3)C4)cc2)cc1C(=O)NC12CCC(O)(CC1)CC2 [Example 40]
C = C[C@@H]1CCCN1Cc1ccc(-c2cnc(N)c(C(=O)N[C@H]3CC[C@](C)(O)CC3)c2)cc1Cl [Example 85]
IN: Sort these compounds on IC50 so the largest reading comes first. List each label, following the requested order.
OUT: C, A, B
(C: 9.8 µM, A: 2.5 µM, B: 0.41 µM)

----------
- Protocol notes: Solubility (at 25° C., 24 h equilibration)
- Format: physicochemical
- Condition info: HCl buffer, 25 °C, pH 2, simulated gastric fluid, thermodynamic from solid, pH 2.0 HCl buffer 2.1, 24 h, target concentration 2 mg/mL
Outcome measure: solubility at 24 h

Measured solubility at 24 h of Nc1ncc(-c2ccc([C@@]34C[C@@H]3CN(C3CCOCC3)C4)cc2)cc1C(=O)NC12CCC(O)(CC1)CC2 [Free form Modification HA] : > 2000 µg/mL
